# assay system: GDP-bound KRAS wild-type protein (Homo sapiens, UniProt P01116)
# Sequence (P01116 whole entry): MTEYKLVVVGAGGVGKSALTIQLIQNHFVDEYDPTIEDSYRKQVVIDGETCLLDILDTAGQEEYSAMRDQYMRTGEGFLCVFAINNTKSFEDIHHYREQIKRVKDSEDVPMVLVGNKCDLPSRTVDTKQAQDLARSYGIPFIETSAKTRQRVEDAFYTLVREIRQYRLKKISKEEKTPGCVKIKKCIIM
# assay info: Binding to KRAS by surface plasmon resonance (SPR), Single Cycle Kinetics
# recorded conditions: SPR, Single Cycle Kinetics, 1:1 binding model; read-out: KD value with respect to GDP-bound KRAS wild-type protein
pKd: −log10 of the molar value.

| molecule | pKd |
| --- | --- |
| CCO[C@@H]1C[C@H]2C(=O)NC3(CC(C)(C)C3)C(=O)N(C)[C@@H](C3CCCC3)C(=O)N(C)[C@H](C(=O)N3CCCCC3)CC(=O)N(C)[C@H]3CCCCc4ccc(cc4)C[C@@H](C(=O)N(C)CC(=O)N[C@@H](CCc4ccc(C(F)(F)F)c(OC)c4)C(=O)N2C1)N1CC/C=C\C[C@@H](C1=O)N(C)C(=O)CN(C)C(=O)[C@H]([C@@H](C)CC)NC3=O [PP3093] | 10.01 |
| CCC[C@H]1C(=O)N[C@@H]([C@@H](C)CC)C(=O)N2CCC[C@H]2C(=O)N(C)[C@H]2C/C=C\CCN(C2=O)[C@@H](Cc2ccc(C(F)(F)F)cc2)C(=O)N(C)CC(=O)N[C@@H](CCc2ccc(C(F)(F)F)c(OC)c2)C(=O)N2C[C@H](OCC)C[C@H]2C(=O)N(C)C2(CCC2)C(=O)N(C)[C@@H](C2CCCC2)C(=O)N(C)[C@H](C(=O)N2CCCC2)CC(=O)N1C [PP3101] | 9.57 |
| CCC[C@H]1C(=O)N[C@@H]([C@@H](C)CC)C(=O)N(C2CC2)CC(=O)N(C)[C@H]2C/C=C\CCN(C2=O)[C@@H](Cc2ccc(C(F)(F)F)cc2)C(=O)N(C)CC(=O)N[C@@H](CCc2ccc(C(F)(F)F)c(OC)c2)C(=O)N2C[C@H](OCC)C[C@H]2C(=O)N(C)C2(CCC2)C(=O)N(C)[C@@H](C2CCCC2)C(=O)N(C)[C@H](C(=O)N2CCCCC2)CC(=O)N1C [PP3095] | 9.17 |
| CC[C@H](C)[C@@H]1NC(=O)[C@H](CC(C)C)N(C)C(=O)CSC[C@H](C(=O)N(C)C)N(C)C(=O)[C@H](C2CCCC2)N(C)C(=O)C2(CCCC2)NC(=O)[C@@H]2CCCN2C(=O)[C@H](CCc2cc(F)c(C(F)(F)F)c(F)c2)NC(=O)CN(C)C(=O)[C@H](Cc2ccc(C(F)(F)F)cc2)N2CC/C=C\C[C@@H](C2=O)N(C)C(=O)CN(C)C1=O [PP3109] | 5.52 |
| CCC[C@H]1C(=O)N[C@@H]([C@@H](C)CC)C(=O)N2CCC[C@H]2C(=O)N(C)[C@H]2C/C=C\CCN(C2=O)[C@@H](Cc2ccc(C)cc2)C(=O)N(C)CC(=O)N[C@@H](CCc2cc(F)c(C(F)(F)F)c(F)c2)C(=O)N2C[C@H](OCC)C[C@H]2C(=O)N(C)C2(CCC2)C(=O)N(C)[C@@H](C2CCCC2)C(=O)N(C)[C@H](C(=O)N2CCCCC2)CC(=O)N1C [PP3115] | 8.59 |

----------
*1 amine or outer side, *2 acyl side, *3 side chain or, on linkers, in order; H or OH if unused. Where a SMILES comes first, the peptide text is derived from it. Bridges are numbered along the chain shown (N, C = ends). [ ]: non-standard residue; d: D form. The star is where a group is joined. hPhe(3,5-F2-4-CF3) = N[C@@H](CCc1cc(F)c(C(F)(F)F)c(F)c1)C(=O)O; NPrPhe(4-CF3) = CCCN[C@@H](Cc1ccc(C(F)(F)F)cc1)C(=O)O; X14 = CN([C@@H](CCCCC=[*:3])C(=O)[*:2])[*:1]; dαMeAlg = C[C@](CC=[*:3])(N[*:1])C(=O)[*:2]; NMeGly(cPent) = CN[C@H](C(=O)O)C1CCCC1; Hyp = O=C(O)[C@@H]1C[C@@H](O)CN1; NMeD = CN[C@@H](CC(=O)O)C(=O)O; Morpholide = C1CN(*)CCO1; Sar = CNCC(=O)O
// endpoint IC50 / system human lung cancer strain NCI-H441;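 also: cell proliferation inhibition after four days measured by CellTiter-Glo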

| molecule | IC50 / nM |
| --- | --- |
| CC[C@H](C)[C@@H]1NC(=O)[C@H](CC)N(C)C(=O)C[C@@H](C(=O)N(C)C)N(C)C(=O)[C@H](C2CCCC2)N(C)C(=O)C2(CCC2)NC(=O)[C@@H]2C[C@H](F)CN2C(=O)[C@H](CCc2cc(F)c(C(F)(F)F)c(F)c2)NC(=O)CN(C)C(=O)[C@H](Cc2ccc(C(F)(F)F)cc2)N2CC/C=C\C[C@@H](C2=O)N(C)C(=O)CN(C)C1=O | 86.8 |
| CCO[C@@H]1C[C@H]2C(=O)NC3(CCC3)C(=O)N(C)[C@@H](C3CCCC3)C(=O)N(C)[C@H](C(=O)N3CCOCC3)CC(=O)N(C)[C@@H](Cc3ccccc3)C(=O)N[C@@H]([C@@H](C)CC)C(=O)N(C)CC(=O)N(C)[C@H]3CCCCCN(C3=O)[C@@H](Cc3ccc(F)cc3)C(=O)N(C)CC(=O)N[C@@H](CCc3cc(F)c(C(F)(F)F)c(F)c3)C(=O)N2C1 | 26.3 |
| CCCN1C(=O)CN(C)C(=O)CN(C)C(=O)[C@H]([C@@H](C)CC)NC(=O)[C@@H]2CCCCC=CC[C@@](C)(NC(=O)[C@@H]3C[C@@H](OCC)CN3C(=O)[C@H](CCc3cc(F)c(C(F)(F)F)c(F)c3)NC(=O)CN(C)C(=O)[C@@H]1Cc1ccc(C(F)(F)F)cc1)C(=O)N(C)[C@@H](C1CCCC1)C(=O)N(C)[C@H](C(=O)N1CCOCC1)CC(=O)N2C [PP0902] ([X14]I[Sar][Sar][NPrPhe(4-CF3)][Sar][hPhe(3,5-F2-4-CF3)][Hyp](Et)[dαMeAlg][NMeGly(cPent)][NMeD]-Morpholide; staple 1-9; lactam N-11) | 72.6 |

----------
# assay system: GDP-bound KRAS wild-type protein (Homo sapiens, UniProt P01116)
# assay info: Binding to KRAS by surface plasmon resonance (SPR), Single Cycle Kinetics
# recorded conditions: SPR, Single Cycle Kinetics, GDP-bound KRAS wild-type protein; read-out: KRAS KD
pKd: −log10 of the molar value.
Below: a set of entries, each annotated with reported pKd.
quantity measured: pKd

| smiles input | reported |
| --- | --- |
| CCO[C@@H]1C[C@H]2C(=O)NC3(CC(C)(C)C3)C(=O)N(C)[C@@H](C3CCCC3)C(=O)N(C)[C@H](C(=O)N(C)CC)CC(=O)N(C)[C@@H](COC)C(=O)N[C@@H]([C@@H](C)CC)C(=O)N(C)CC(=O)N(C)[C@H]3C/C=C\CCN(C3=O)[C@@H](Cc3ccc(C)cc3)C(=O)N(C)CC(=O)N[C@@H](CCc3ccc(C(F)(F)F)c(Cl)c3)C(=O)N2C1 | 10.21 |
| CC[C@H](C)[C@@H]1NC(=O)[C@H](CC)N(C)C(=O)C[C@@H](C(=O)N(C)C)N(C)C(=O)[C@H](C2CCCC2)N(C)C(=O)C2(CCCC2)N(C)C(=O)[C@@H]2C[C@@H](C)CN2C(=O)[C@H](CCc2cc(F)c(C(F)(F)F)c(F)c2)NC(=O)CN(C)C(=O)[C@H](Cc2ccc(C)cc2)N2CC/C=C\C[C@@H](C2=O)N(C)C(=O)CN(C)C1=O | 10.23 |
| CCO[C@@H]1C[C@H]2C(=O)NC3(CCC3)C(=O)N(C)[C@@H](C(C)(C)C)C(=O)N(C)[C@H](C(=O)N3CCOCC3)CC(=O)N(C)[C@@H](CC(C)C)C(=O)N[C@@H]([C@@H](C)CC)C(=O)N(C)CC(=O)N(C)[C@H]3CCCCCN(C3=O)[C@@H](Cc3ccc(C(F)(F)F)cc3)C(=O)N(C)CC(=O)N[C@@H](CCc3cc(F)c(C(F)(F)F)c(F)c3)C(=O)N2C1 | 9.09 |
| CCO[C@@H]1C[C@H]2C(=O)NC3(CCC3)C(=O)N(C)[C@@H](C3CCCC3)C(=O)N(C)[C@H](C(=O)N(C)C)CC(=O)N(C)[C@@H](CC)C(=O)N[C@@H]([C@@H](C)CC)C(=O)N(C)CC(=O)N(C)[C@H]3CCCCN(C3=O)[C@@H](Cc3ccc(C(F)(F)F)cc3)C(=O)N(C)CC(=O)N[C@@H](CCc3ccc(C(F)(F)F)c(C)c3)C(=O)N2C1 | 10.70 |
| CC[C@H](C)[C@@H]1NC(=O)[C@H](C)N(C)C(=O)C[C@@H](C(=O)N(C)C)N(C)C(=O)[C@H](C2CCCC2)N(C)C(=O)C2(CCC2)NC(=O)[C@@H]2CC(F)(F)CN2C(=O)[C@H](CCc2cc(F)c(C(F)(F)F)c(F)c2)NC(=O)CN(C)C(=O)[C@H](Cc2ccc(C(F)(F)F)cc2)N2CC/C=C\C[C@@H](C2=O)N(C)C(=O)CN(C)C1=O | 10.44 |
| CC[C@H](C)[C@@H]1NC(=O)[C@H](CC)N(C)C(=O)C[C@@H](C(=O)N(C)C)N(C)C(=O)[C@H](C2CCCC2)N(C)C(=O)C2(CCC2)N(C)C(=O)[C@@H]2C[C@@H](C)CN2C(=O)[C@H](CCc2cc(F)c(C(F)(F)F)c(F)c2)NC(=O)CN(C)C(=O)[C@H](Cc2ccc(C)cc2)N2CC/C=C\C[C@@H](C2=O)N(C)C(=O)[C@@H]2CCCN2C1=O | 9.89 |
